Answer each item with its documented pIC50.
biological target: mushroom tyrosinase; assay: Mushroom tyrosinase inhibition assay; conditions: L-tyrosine as substrate; mean of 3 experiments; read-out: IC50 against mushroom tyrosinase
The quantity pIC50 is defined as the negative base-10 logarithm of the molar concentration.

// assay mushroom tyrosinase, entry `COc1ccc(/C=C2\SC(=O)NC2=S)cc1OC` , pIC50 value = 4.63

Tested on mushroom tyrosinase: `O=C1NC(=S)/C(=C/c2ccc(O)c(O)c2)S1` . Observed pIC50: 4.32

Record `COc1cc(/C=C2\SC(=O)NC2=S)ccc1O` has mushroom tyrosinase pIC50 equal to 4.15

Measured on mushroom tyrosinase, `COc1cc(/C=C2\SC(=O)NC2=S)cc(OC)c1O` has a documented pIC50 of 4.08

Query `O=C1NC(=S)/C(=C/c2ccccc2O)S1` on mushroom tyrosinase; pIC50 returned: 3.83

`CCOc1cc(/C=C2\SC(=O)NC2=S)ccc1O` tested on mushroom tyrosinase gave pIC50: 4.03

// assay mushroom tyrosinase, entry `COc1ccc(/C=C2\SC(=O)NC2=S)c(OC)c1` , pIC50 value = 3.90

Noted pIC50 for `COc1ccc(/C=C2\SC(=O)NC2=S)cc1O` , tested on mushroom tyrosinase: 4.82

Tested on mushroom tyrosinase: `O=C1NC(=S)/C(=C/c2ccc(O)c(Br)c2)S1` . Observed pIC50: 4.58

Reported pIC50 (mushroom tyrosinase) for entry `COc1ccc(/C=C2\SC(=O)NC2=S)cc1` is 4.51

The observed pIC50 for `O=C1NC(=S)/C(=C/c2ccc(O)cc2)S1` when tested with mushroom tyrosinase stands at 4.55
